All figures here come from patent US20240400708A1.

Each record here notes measured pKd.
Biological target: feline FcRn complex (FcRn-α subunit and β-microglobulin), biotin labeled (feline)
Assay: SPR, pH 7.4
Hey, just a heads up that pKd is the negative log base 10 of the concentration in molar.

Below: 3 binders and their reported pKd.
feline IgG1a S428Y/D312P/L314K (antibody, part only; not given: Variable domains, not shown: another chain or arm of the molecule) constant: ASTTAPSVFPLAPSCGTTSGATVALACLVLGYFPEPVTVSWNSGALTSGVHTFPAVLQASGLYSLSSMVTVPSSRWLSDTFTCNVAHPPSNTKVDKTVRKTDHPPGPKPCDCPKCPPPEMLGGPSIFIFPPKPKDTLSISRTPEVTCLVVDLGPDDSDVQITWFVDNTQVYTAKTSPREEQFNSTYRVVSVLPILHQPWKKGKEFKCKVNSKSLPSPIERTISKAKGQPHEPQVYVLPPAQEELSRNKVSVTCLIKSFHPPDIAVEWEITGQPEPENNYRTTPPQLDSDGTYFVYSKLSVDRSHWQRGNTYTCSVYHEALHSHHTQKSLTQSPGK	5.16
feline IgG1a S252F/S434R (antibody, part only; not given: Variable domains, not shown: another chain or arm of the molecule; small tags and cut ends) constant: ASTTAPSVFPLAPSCGTTSGATVALACLVLGYFPEPVTVSWNSGALTSGVHTFPAVLQASGLYSLSSMVTVPSSRWLSDTFTCNVAHPPSNTKVDKTVRKTDHPPGPKPCDCPKCPPPEMLGGPSIFIFPPKPKDTLFISRTPEVTCLVVDLGPDDSDVQITWFVDNTQVYTAKTSPREEQFNSTYRVVSVLPILHQDWLKGKEFKCKVNSKSLPSPIERTISKAKGQPHEPQVYVLPPAQEELSRNKVSVTCLIKSFHPPDIAVEWEITGQPEPENNYRTTPPQLDSDGTYFVYSKLSVDRSHWQRGNTYTCSVSHEALHRHHTQKSLTQSPGK	6.40
feline IgG1a S252Y/S428M/S434P (antibody, part only; not given: Variable domains, not shown: another chain or arm of the molecule) constant: ASTTAPSVFPLAPSCGTTSGATVALACLVLGYFPEPVTVSWNSGALTSGVHTFPAVLQASGLYSLSSMVTVPSSRWLSDTFTCNVAHPPSNTKVDKTVRKTDHPPGPKPCDCPKCPPPEMLGGPSIFIFPPKPKDTLYISRTPEVTCLVVDLGPDDSDVQITWFVDNTQVYTAKTSPREEQFNSTYRVVSVLPILHQDWLKGKEFKCKVNSKSLPSPIERTISKAKGQPHEPQVYVLPPAQEELSRNKVSVTCLIKSFHPPDIAVEWEITGQPEPENNYRTTPPQLDSDGTYFVYSKLSVDRSHWQRGNTYTCSVMHEALHPHHTQKSLTQSPGK	7.35

Q: I have this binder here, feline IgG1a S252H/Q311Y (antibody, part only; not given: variable domains and light chain, not shown: another chain or arm of the molecule; small tags and cut ends) constant: ASTTAPSVFPLAPSCGTTSGATVALACLVLGYFPEPVTVSWNSGALTSGVHTFPAVLQASGLYSLSSMVTVPSSRWLSDTFTCNVAHPPSNTKVDKTVRKTDHPPGPKPCDCPKCPPPEMLGGPSIFIFPPKPKDTLHISRTPEVTCLVVDLGPDDSDVQITWFVDNTQVYTAKTSPREEQFNSTYRVVSVLPILHYDWLKGKEFKCKVNSKSLPSPIERTISKAKGQPHEPQVYVLPPAQEELSRNKVSVTCLIKSFHPPDIAVEWEITGQPEPENNYRTTPPQLDSDGTYFVYSKLSVDRSHWQRGNTYTCSVSHEALHSHHTQKSLTQSPGK , and I need its recorded pKd.
Result: 7.44
